Tested on: NCI-H441
method: relative viability (nuclei count vs DMSO), 5 days (fraction); higher = more cells survive
run conditions: first compound 0.6325 µM
experimental endpoint: relative viability

| compound | numeric readout |
| --- | --- |
| Cc1csc(=NC2CCCCC2)n1/N=C/c1ccc(O)c(O)c1O [MIM1] + C[C@@H](Oc1cc(-c2cnn(C3CCNCC3)c2)cnc1N)c1c(Cl)ccc(F)c1Cl [Crizotinib] (partner 1 µM) | 0.692 |
| CN1CCN(CCOc2cc(OC3CCOCC3)c3c(Nc4c(Cl)ccc5c4OCO5)ncnc3c2)CC1 [Saracatinib] + CCNC(=O)c1noc(-c2cc(C(C)C)c(O)cc2O)c1-c1ccc(CN2CCOCC2)cc1 [Luminespib] (partner 0.01 µM) | 0.286 |
| Cc1csc(=NC2CCCCC2)n1/N=C/c1ccc(O)c(O)c1O [MIM1] + C[C@]1(O)C[C@@H](c2nc(-c3ccc4ccc(-c5ccccc5)nc4c3)c3c(N)nccn32)C1 [Linsitinib] (partner 1 µM) | 0.528 |
| CN1CCN(CCOc2cc(OC3CCOCC3)c3c(Nc4c(Cl)ccc5c4OCO5)ncnc3c2)CC1 [Saracatinib] + C[C@]1(O)C[C@@H](c2nc(-c3ccc4ccc(-c5ccccc5)nc4c3)c3c(N)nccn32)C1 [Linsitinib] (partner 1 µM) | 0.682 |
| CN1CCN(CCOc2cc(OC3CCOCC3)c3c(Nc4c(Cl)ccc5c4OCO5)ncnc3c2)CC1 [Saracatinib] + N=C(N)NC(=N)NCCc1ccccc1 [Phenformin] (partner 250 µM) | 1.17 |
| CN1CCN(CCOc2cc(OC3CCOCC3)c3c(Nc4c(Cl)ccc5c4OCO5)ncnc3c2)CC1 [Saracatinib] + Cc1nc(Nc2ncc(C(=O)Nc3c(C)cccc3Cl)s2)cc(N2CCN(CCO)CC2)n1 [Dasatinib] (partner 0.075 µM) | 0.715 |
| CN1CCN(CCOc2cc(OC3CCOCC3)c3c(Nc4c(Cl)ccc5c4OCO5)ncnc3c2)CC1 [Saracatinib] + COc1cccc2cc(-c3nc([C@H]4CC[C@H](C(=O)O)CC4)n4ncnc(N)c34)[nH]c12 [OSI-027] (partner 0.5 µM) | 0.875 |

====

Tested on: PC-3 [JPC-3]
method: relative viability (nuclei count vs DMSO), 5 days (fraction); higher = more cells survive
run conditions: first compound 0.06325 µM
A collection of compounds and their measured relative viability

| compound | relative viability |
| --- | --- |
| CCNC(=O)c1noc(-c2cc(C(C)C)c(O)cc2O)c1-c1ccc(CN2CCOCC2)cc1 [Luminespib] + CC1(C)CCC(c2ccc(Cl)cc2)=C(CN2CCN(c3ccc(C(=O)NS(=O)(=O)c4ccc(N[C@H](CCN5CCOCC5)CSc5ccccc5)c(S(=O)(=O)C(F)(F)F)c4)cc3)CC2)C1 [Navitoclax] (partner 0.5 µM) | 0.847 |
| CCNC(=O)c1noc(-c2cc(C(C)C)c(O)cc2O)c1-c1ccc(CN2CCOCC2)cc1 [Luminespib] + CC(C)C[C@H](NC(=O)[C@H](Cc1ccccc1)NC(=O)c1cnccn1)B(O)O [Bortezomib] (partner 0.002 µM) | 0.942 |
| CCNC(=O)c1noc(-c2cc(C(C)C)c(O)cc2O)c1-c1ccc(CN2CCOCC2)cc1 [Luminespib] + Nc1nc2[nH]cc(CCc3ccc(C(=O)N[C@@H](CCC(=O)O)C(=O)O)cc3)c2c(=O)[nH]1 [Pemetrexed] (partner 0.2 µM) | 0.357 |
| CCNC(=O)c1noc(-c2cc(C(C)C)c(O)cc2O)c1-c1ccc(CN2CCOCC2)cc1 [Luminespib] + CS(=O)(=O)CCNCc1ccc(-c2ccc3ncnc(Nc4ccc(OCc5cccc(F)c5)c(Cl)c4)c3c2)o1 [Lapatinib] (partner 2 µM) | 0.488 |
| CCNC(=O)c1noc(-c2cc(C(C)C)c(O)cc2O)c1-c1ccc(CN2CCOCC2)cc1 [Luminespib] + C[C@]1(O)C[C@@H](c2nc(-c3ccc4ccc(-c5ccccc5)nc4c3)c3c(N)nccn32)C1 [Linsitinib] (partner 1 µM) | 0.997 |

====

A collection of molecules and their measured relative viability
Tested on: NCI-H2009
method: relative viability (nuclei count vs DMSO), 5 days (fraction); higher = more cells survive
run conditions: first compound 0.02 µM

| molecule | relative viability |
| --- | --- |
| CN1CCN(CCOc2cc(OC3CCOCC3)c3c(Nc4c(Cl)ccc5c4OCO5)ncnc3c2)CC1 [Saracatinib] + Cc1nc(NC(=O)N2CCC[C@H]2C(N)=O)sc1-c1ccnc(C(C)(C)C(F)(F)F)c1 [Alpelisib] (partner 2 µM) | 1.16 |
| CCNC(=O)c1noc(-c2cc(C(C)C)c(O)cc2O)c1-c1ccc(CN2CCOCC2)cc1 [Luminespib] + Cc1cc(Nc2cc(N3CCN(C)CC3)nc(Sc3ccc(NC(=O)C4CC4)cc3)n2)n[nH]1 [Tozasertib] (partner 0.1 µM) | 0.798 |

====

A collection of compounds and their measured relative viability
System: NCI-H650
method: relative viability (nuclei count vs DMSO), 5 days (fraction); higher = more cells survive
run conditions: first compound 0.01 µM

| compound | relative viability |
| --- | --- |
| Cc1cn(-c2cc(NC(=O)c3ccc(C)c(Nc4nccc(-c5cccnc5)n4)c3)cc(C(F)(F)F)c2)cn1 [Nilotinib] + N=C(N)NC(=N)NCCc1ccccc1 [Phenformin] (partner 250 µM) | 0.447 |
| Cc1cn(-c2cc(NC(=O)c3ccc(C)c(Nc4nccc(-c5cccnc5)n4)c3)cc(C(F)(F)F)c2)cn1 [Nilotinib] + CS(=O)(=O)N1CCN(Cc2cc3nc(-c4cccc5[nH]ncc45)nc(N4CCOCC4)c3s2)CC1 [Pictilisib] (partner 1 µM) | 0.841 |

====

Tested on: HCC-15
method: relative viability (nuclei count vs DMSO), 5 days (fraction); higher = more cells survive
run conditions: first compound 0.002 µM

| molecule | relative viability |
| --- | --- |
| CCNC(=O)c1noc(-c2cc(C(C)C)c(O)cc2O)c1-c1ccc(CN2CCOCC2)cc1 [Luminespib] + CC(=O)c1c(C)c2cnc(Nc3ccc(N4CCNCC4)cn3)nc2n(C2CCCC2)c1=O [Palbociclib] (partner 0.5 µM) | 0.815 |
| CCNC(=O)c1noc(-c2cc(C(C)C)c(O)cc2O)c1-c1ccc(CN2CCOCC2)cc1 [Luminespib] + C[C@@H](Oc1cc(-c2cnn(C3CCNCC3)c2)cnc1N)c1c(Cl)ccc(F)c1Cl [Crizotinib] (partner 1 µM) | 0.836 |
| CCNC(=O)c1noc(-c2cc(C(C)C)c(O)cc2O)c1-c1ccc(CN2CCOCC2)cc1 [Luminespib] + O=C(c1cc(Cc2n[nH]c(=O)c3ccccc23)ccc1F)N1CCN(C(=O)C2CC2)CC1 [Olaparib] (partner 8 µM) | 0.778 |
| CCNC(=O)c1noc(-c2cc(C(C)C)c(O)cc2O)c1-c1ccc(CN2CCOCC2)cc1 [Luminespib] + O=C(CCCCCCC(=O)Nc1ccccc1)NO [Vorinostat] (partner 1 µM) | 0.792 |
| CCNC(=O)c1noc(-c2cc(C(C)C)c(O)cc2O)c1-c1ccc(CN2CCOCC2)cc1 [Luminespib] + Nc1ncn([C@H]2C[C@H](O)[C@@H](CO)O2)c(=O)n1 [Decitabine] (partner 2 µM) | 0.695 |

====

System: HOP-62
method: relative viability (nuclei count vs DMSO), 5 days (fraction); higher = more cells survive
run conditions: first compound 6.325 µM
A collection of compounds and their measured relative viability

| compound | relative viability |
| --- | --- |
| Cc1csc(=NC2CCCCC2)n1/N=C/c1ccc(O)c(O)c1O [MIM1] + NC(=O)Nc1cc(-c2cccc(F)c2)sc1C(=O)N[C@H]1CCCNC1 [AZD7762] (partner 0.2 µM) | 0.506 |
| Cc1csc(=NC2CCCCC2)n1/N=C/c1ccc(O)c(O)c1O [MIM1] + Cc1cc(Nc2cc(N3CCN(C)CC3)nc(Sc3ccc(NC(=O)C4CC4)cc3)n2)n[nH]1 [Tozasertib] (partner 0.1 µM) | 0.335 |
| Cc1csc(=NC2CCCCC2)n1/N=C/c1ccc(O)c(O)c1O [MIM1] + N=C(N)NC(=N)NCCc1ccccc1 [Phenformin] (partner 250 µM) | 0.608 |
| Cc1csc(=NC2CCCCC2)n1/N=C/c1ccc(O)c(O)c1O [MIM1] + CS(=O)(=O)CCNCc1ccc(-c2ccc3ncnc(Nc4ccc(OCc5cccc(F)c5)c(Cl)c4)c3c2)o1 [Lapatinib] (partner 2 µM) | 0.843 |
| Cc1csc(=NC2CCCCC2)n1/N=C/c1ccc(O)c(O)c1O [MIM1] + CC(=O)c1c(C)c2cnc(Nc3ccc(N4CCNCC4)cn3)nc2n(C2CCCC2)c1=O [Palbociclib] (partner 0.5 µM) | 0.431 |

====

A collection of compounds and their measured relative viability
Tested on: SW 1573
method: relative viability (nuclei count vs DMSO), 5 days (fraction); higher = more cells survive
run conditions: first compound 2 µM
experimental endpoint: relative viability

| compound | measured target | numeric readout |
| --- | --- | --- |
| CN1CCN(CCOc2cc(OC3CCOCC3)c3c(Nc4c(Cl)ccc5c4OCO5)ncnc3c2)CC1 [Saracatinib] + O=C(c1cc(Cc2n[nH]c(=O)c3ccccc23)ccc1F)N1CCN(C(=O)C2CC2)CC1 [Olaparib] (partner 8 µM) | SW 1573 | 0.384 |
| Cc1csc(=NC2CCCCC2)n1/N=C/c1ccc(O)c(O)c1O [MIM1] + N=C(N)NC(=N)NCCc1ccccc1 [Phenformin] (partner 250 µM) | SW 1573 | 0.442 |
| Cc1csc(=NC2CCCCC2)n1/N=C/c1ccc(O)c(O)c1O [MIM1] + COc1cc2c(Oc3ccc(NC(=O)C4(C(=O)Nc5ccc(F)cc5)CC4)cc3F)ccnc2cc1OCCCN1CCOCC1 [Foretinib] (partner 0.25 µM) | SW 1573 | 0.809 |
| Cc1csc(=NC2CCCCC2)n1/N=C/c1ccc(O)c(O)c1O [MIM1] + CC(=O)c1c(C)c2cnc(Nc3ccc(N4CCNCC4)cn3)nc2n(C2CCCC2)c1=O [Palbociclib] (partner 0.5 µM) | SW 1573 | 0.365 |
